Test system: P388 leukemia ip, CD2F1 mice, survival T/C
Test: NCI In Vivo Anticancer Drug Screen. Data for tumor model P388 Leukemia (intraperitoneal) in CD2F1 (CDF1) mice
Details: endpoint: median survival time; dose: 30.0 mg/kg/injection; schedule: Q01DX005 (ip); vehicle: saline with Tween-80; higher = longer survival
Toxic doses and inconclusive results are not listed.
Please respond with reported T/C for every item in the list.

The cases that follow already have their T/C on record.
C[n+]1ccc2ccccc2c1 :: 100 % of control
c1ccc2c(c1)c1ccccc1c1n[se]nc21 :: 90 % of control
O=C(CSc1nnc(CSc2ccc(Cl)cc2)n1-c1ccccc1)NC(=O)Nc1ccccc1 :: 86 % of control

## Task Which T/C is reported for this molecule? CN1C(=O)n2c(nc3ccccc32)C(N=[N+]=[N-])(N=[N+]=[N-])C1=O (centres undefined)
## Result 101 % of control
